# Test system: THP-1
# assay method text: Antiproliferative activity against human THP1 cells treated for 24 hrs measured after 72 hrs by MTT assay
# Format: functional, cell-based
Would you mind telling me the reported pIC50 of each entry?
Friendly reminder that pIC50 comes from taking -log10 of the concentration in mol/L.

Query: Which pIC50 reading was recorded for the molecule CN1c2ccccc2C(=O)N2CCc3c(n(CCCOCCCO)c4ccccc34)C21 (configuration not stated) ?
Response: 5.07

Query: What value of measured pIC50 is listed for CN1c2ccccc2C(=O)N2CCc3c(n(CCCOCCCOC(=O)CCCc4ccc(N(CCCl)CCCl)cc4)c4ccccc34)C21 (configuration not stated) ?
Response: 5.27

Query: I have this molecule here, CN1c2ccccc2C(=O)N2CCc3c(n(CCO)c4ccccc34)C21 (configuration not stated) , and I need its recorded pIC50.
Response: 5.79

Query: Would you kindly share the measured pIC50 for CN1c2ccccc2C(=O)N2CCc3c(n(CCOC(=O)CCCc4ccc(N(CCCl)CCCl)cc4)c4ccccc34)C21 (configuration not stated) ?
Response: 5.32

Query: Consider the molecule shown here: `COC(=O)[C@H](Cc1ccc(N(CCCl)CCCl)cc1)NC(=O)CCC(=O)O` What is its recorded pIC50?
Response: 5.42

Query: # lookup: pIC50 of CN1c2ccccc2C(=O)N2CCc3c(n(CCOC(=O)c4ccc(N(CCCl)CCCl)cc4)c4ccccc34)C21 (configuration not stated)
Response: 4.47

Query: If you can, please state the reported pIC50 value of CN1c2ccccc2C(=O)N2CCc3c(n(CCCOC(=O)c4ccc(N(CCCl)CCCl)cc4)c4ccccc34)C21 (configuration not stated) .
Response: 5.18

Query: What does the record list as pIC50 for COC(=O)[C@H](Cc1ccc(N(CCCl)CCCl)cc1)NC(=O)CCC(=O)OCCCn1c2c(c3ccccc31)CCN1C(=O)c3ccccc3N(C)C21 (some centres not stated) ?
Response: 5.63

Query: Form field: reported pIC50 of CN1c2ccccc2C(=O)N2CCc3c(n(CCCOCCCOC(=O)c4ccc(N(CCCl)CCCl)cc4)c4ccccc34)C21 (configuration not stated)
Response: 5.03

Query: # lookup: pIC50 of CN1c2ccccc2C(=O)N2CCc3c([nH]c4ccccc34)C21 (configuration not stated)
Response: 5.47

Query: Any idea what its pIC50 is? The molecule is COC(=O)[C@H](Cc1ccc(N(CCCl)CCCl)cc1)NC(=O)CCC(=O)OCCCCCCn1c2c(c3ccccc31)CCN1C(=O)c3ccccc3N(C)C21 (some centres not stated)
Response: 5.37

Query: What pIC50 value was documented for this molecule, CN1c2ccccc2C(=O)N2CCc3c(n(CCCCCCOC(=O)CCCc4ccc(N(CCCl)CCCl)cc4)c4ccccc34)C21 (configuration not stated) ?
Response: 4.98

---

# System: HepG2
# assay method text: Antiproliferative activity against human HepG2 cells treated for 24 hrs measured after 72 hrs by MTT assay
# Type: functional, cell-based
attribute measured: IC50

Query: State the recorded IC50 for this entry: CN1c2ccccc2C(=O)N2CCc3c(n(CCCOC(=O)CCCc4ccc(N(CCCl)CCCl)cc4)c4ccccc34)C21 (centres undefined)
Response: > 100 µM

Query: Fill in the blank: the reported IC50 of `COC(=O)[C@H](Cc1ccc(N(CCCl)CCCl)cc1)NC(=O)CCC(=O)O` is ____.
Response: 13.8 µM

Query: Can you share its IC50? I mean this molecule: `O=C(O)CCCc1ccc(N(CCCl)CCCl)cc1`
Response: > 100 µM

Query: Record request: IC50 value, item COC(=O)[C@H](Cc1ccc(N(CCCl)CCCl)cc1)NC(=O)CCC(=O)OCCCCCCn1c2c(c3ccccc31)CCN1C(=O)c3ccccc3N(C)C21 (some centres undefined)
Response: > 100 µM
